# Tested on: M14 melanoma
# experiment_description: NCI tumour cell line growth inhibition, 48 h
The following compounds are listed with their measured GI50 values.

compound=COc1cc(C=NCC(=O)CSC(c2ccccc2)c2ccccc2)cc(OC)c1OC recorded_value="27 µM"
compound="NC(=NC1C2CC3CC(C2)CC1C3)Nc1ccc(I)cc1 (stereo not given)" recorded_value="2.08 µM"
compound=C/C(=N\n1c(N)c(C#N)c(-c2ccc(Cl)cc2)c(C#N)c1=O)c1cccnc1 recorded_value="> 100 µM"
compound="CC(=O)OCC1OC(O[C@@H]2C[C@H]3C(C)(C)[C@H](OC(C)=O)CC[C@]3(C)[C@H]3CC[C@@H]4[C@]5(CC[C@@]4(C)[C@@]32C)O[C@@H]([C@H](O)C(C)(C)O)C[C@@H]5C)C(O)C(O)C1O (stereo not given in full)" recorded_value="5.01 µM"

Problem: Find the recorded GI50 belonging to Cc1ccc(Nc2ccnc(Nc3cccc(C(N)=O)c3)n2)cc1O and report it.
Result: 5.87 µM

Data credit: PubChem BioAssay (NCI)
